- Tested on: Glutamate receptor ionotropic, NMDA 3A (GRIN3A) ligand-binding domain
- Assay Text: binders of NR3A ligand-binding domain, primary screen, biophysical, differential scanning fluorimetry, uHTS (AID 1259313)
- Condition Label: NR3A LBD differential scanning fluorimetry, at 25 µM, 0% = protein alone, 100% = glycine-bound protein
Out of some 340,000 compounds screened, about 8,500 (2.5%) were called active.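 Rule for the calls: active = melting temperature shift of at least 10% of the positive control shift, at one fixed dose; inactive = the rest.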 Shown is part of a subset that was picked to be rich in actives.
Form entry, call: pick from active, inactive

Examples with answers:
[
  {
    "Molecule": "CCCOc1ccc(NC(=O)CC2C(=O)N(C)C(=S)N2Cc2ccc3c(c2)OCO3)cc1 (stereo not given)",
    "Measured Target": "Glutamate receptor ionotropic, NMDA 3A (GRIN3A) ligand-binding domain",
    "Cat": "active"
  },
  {
    "Molecule": "CCc1nc(Nc2ccc(NC(C)=O)cc2)c2oc3ccccc3c2n1",
    "Measured Target": "Glutamate receptor ionotropic, NMDA 3A (GRIN3A) ligand-binding domain",
    "Cat": "active"
  },
  {
    "Molecule": "COC(=O)c1cc(S(=O)(=O)N2CCN(c3cc(C)ccc3C)CC2)c[nH]1",
    "Measured Target": "Glutamate receptor ionotropic, NMDA 3A (GRIN3A) ligand-binding domain",
    "Cat": "inactive"
  }
]

Which result was noted for this molecule in the test: `C[C@@H](Nc1nc(-c2ccccc2)nc2c1oc1ccccc12)C(=O)O`
inactive

Which result was noted for this molecule in the test: `CCN(CC(=O)Nc1ccc(S(=O)(=O)N2CCCC2)cc1)CC(=O)Nc1cccc(OC)c1`
inactive

Which result was noted for this molecule in the test: COc1ccc(N2C(=O)C(CC(=O)Nc3ccccc3)N(Cc3ccc(OC)c(OC)c3)C2=O)cc1 (stereo not given)
inactive

Which result was noted for this molecule in the test: `O=C(Cn1c(-c2ccc(Cl)cc2)noc1=O)N1CCN(c2ccccc2F)CC1`
inactive

Which result was noted for this molecule in the test: `O=C(Nc1ccc(C(=O)N2CCOCC2)cc1)Nc1cccc(C(F)(F)F)c1`
inactive

Which result was noted for this molecule in the test: `COc1ccc(/C(C)=N/NC(=O)c2ccc3nc[nH]c3c2)cc1`
inactive

Which result was noted for this molecule in the test: `O=C(NCc1ccccc1)c1ccc(S(=O)(=O)Nc2cccc(C(F)(F)F)c2)cc1`
inactive

====

- System: Glutamate receptor ionotropic, NMDA 3A (GRIN3A) ligand-binding domain
- Assay Text: binders of NR3A ligand-binding domain, primary screen, biophysical, differential scanning fluorimetry, uHTS (AID 1259313)
- Condition Label: NR3A LBD differential scanning fluorimetry, at 25 µM, hits give high values, 0% = protein alone, 100% = glycine-bound protein
Screen size: about 340,000 compounds; about 8,500 (2.5%) were called active. Many of the other results were omitted from the sample, so actives are more common in it than they were.
# maps each entry to its Tm shift relative to glycine control
Express it in %; write the number only.

Here's what some known entries look like.
[
  {
    "Molecule": "CCC(=O)c1ccc(OCC(=O)Nc2ccc3nc(C)sc3c2)cc1",
    "Readout Units": "%",
    "Val": 0.32
  },
  {
    "Molecule": "O=C(COc1ccccc1F)NNC(=O)c1cc(Br)ccc1Cl",
    "Readout Units": "%",
    "Val": 0.51
  },
  {
    "Molecule": "COC(=O)c1cc(NS(=O)(=O)c2ccc3c(c2)c(=O)n(C)c(=O)n3C)cc(C(=O)OC)c1",
    "Readout Units": "%",
    "Val": -17.2
  }
]

// lookup Tm shift relative to glycine control for O=C(NCCN1C(=O)C2C3C=CC(C3)C2C1=O)Nc1ccccn1 (configuration not stated)
-0.55

// lookup Tm shift relative to glycine control for `Cc1nn(C)cc1N1C(=O)c2cccc3c(N)ccc(c23)C1=O`
-0.63

// lookup Tm shift relative to glycine control for `CCOc1ccc2[nH]c3nc(SCC(=O)NC4CCCC4)nnc3c2c1`
-4.45

// lookup Tm shift relative to glycine control for `CCOCCCNC(=O)Cc1cc(=O)[nH]c(=O)[nH]1`
-1.66

// lookup Tm shift relative to glycine control for Cc1ccc(S(=O)(=O)c2ccc(Cl)cc2)cc1S(=O)(=O)NC(C(=O)O)C(C)C (configuration not stated)
-2.2

// lookup Tm shift relative to glycine control for `Nc1ncnc(Nc2cccc(Cl)c2Cl)n1`
-0.42

// lookup Tm shift relative to glycine control for `COc1cc(C(=O)N2C(=O)c3cccc(N)c3C2=O)cc(OC)c1OC`
-1.08

====

- System: Glutamate receptor ionotropic, NMDA 3A (GRIN3A) ligand-binding domain
- Assay Text: binders of NR3A ligand-binding domain, primary screen, biophysical, differential scanning fluorimetry, uHTS (AID 1259313)
- Condition Label: NR3A LBD differential scanning fluorimetry, at 25 µM, hits give high values, 0% = protein alone, 100% = glycine-bound protein
The campaign covered roughly 340,000 compounds. About 8,500 (2.5%) were called active. The sample holds actives, similar compounds and a random draw of the others, so the mix is not that of the screen.
Measured Quantity: Tm shift relative to glycine control

Here's what some known entries look like.
[
  {
    "Molecule": "COC(=O)Cn1c(=NC(=O)c2cc(OC)c(OC)c(OC)c2)sc2cc(OC)ccc21",
    "Measured Target": "Glutamate receptor ionotropic, NMDA 3A (GRIN3A) ligand-binding domain",
    "Tm shift relative to glycine control": "4.34% (inactive)"
  },
  {
    "Molecule": "COC(=O)c1nc(NC(=O)c2ccccc2)n[nH]1",
    "Measured Target": "Glutamate receptor ionotropic, NMDA 3A (GRIN3A) ligand-binding domain",
    "Tm shift relative to glycine control": "-2.48% (inactive)"
  },
  {
    "Molecule": "Cc1ccc(N2C(=O)C(CC(=O)Nc3cccc(F)c3)N(CCc3ccncc3)C2=O)cc1 (stereo unspecified)",
    "Measured Target": "Glutamate receptor ionotropic, NMDA 3A (GRIN3A) ligand-binding domain",
    "Tm shift relative to glycine control": "0.4% (inactive)"
  },
  {
    "Molecule": "CN1C(=O)C(CC(N)=O)N(NC(=O)c2ccc(Cl)cc2)C1=S (stereo unspecified)",
    "Measured Target": "Glutamate receptor ionotropic, NMDA 3A (GRIN3A) ligand-binding domain",
    "Tm shift relative to glycine control": "-3.25% (inactive)"
  },
  {
    "Molecule": "O=C(Nc1ccccc1)Nc1nnc(COc2ccccc2F)s1",
    "Measured Target": "Glutamate receptor ionotropic, NMDA 3A (GRIN3A) ligand-binding domain",
    "Tm shift relative to glycine control": "38.9% (active)"
  },
  {
    "Molecule": "C/C(CC(=O)NC(C)c1ccccc1)=N\\NC(N)=S (stereo unspecified)",
    "Measured Target": "Glutamate receptor ionotropic, NMDA 3A (GRIN3A) ligand-binding domain",
    "Tm shift relative to glycine control": "-2.12% (inactive)"
  },
  {
    "Molecule": "CCn1c(SC)nc(O)c(C(c2ccc(OC)c(O)c2)c2c(O)nc(SC)n(CC)c2=O)c1=O",
    "Measured Target": "Glutamate receptor ionotropic, NMDA 3A (GRIN3A) ligand-binding domain",
    "Tm shift relative to glycine control": "-1.71% (inactive)"
  },
  {
    "Molecule": "COCC(=O)Nc1nnc(COc2ccccc2)s1",
    "Measured Target": "Glutamate receptor ionotropic, NMDA 3A (GRIN3A) ligand-binding domain",
    "Tm shift relative to glycine control": "2.29% (inactive)"
  },
  {
    "Molecule": "Cc1cc(C(=O)OCC(=O)NCc2ccco2)c(C)n1-c1ccccc1",
    "Measured Target": "Glutamate receptor ionotropic, NMDA 3A (GRIN3A) ligand-binding domain",
    "Tm shift relative to glycine control": "-1.04% (inactive)"
  },
  {
    "Molecule": "CCN(CC)CC(=O)c1c[nH]c2ccc(OC)cc12",
    "Measured Target": "Glutamate receptor ionotropic, NMDA 3A (GRIN3A) ligand-binding domain",
    "Tm shift relative to glycine control": "-2.92% (inactive)"
  }
]

// lookup Tm shift relative to glycine control for `Brc1ccccc1CN1CCC(Cc2ccccc2)CC1`
0.68% (inactive)

====

- Test system: Glutamate receptor ionotropic, NMDA 3A (GRIN3A) ligand-binding domain
- Assay Text: binders of NR3A ligand-binding domain, primary screen, biophysical, differential scanning fluorimetry, uHTS (AID 1259313)
- Condition Label: NR3A LBD differential scanning fluorimetry, at 25 µM, 0% = protein alone, 100% = glycine-bound protein
The campaign covered roughly 340,000 compounds. About 8,500 (2.5%) were called active.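 How the source made its calls: active means melting temperature shift of at least 10% of the positive control shift, at one fixed dose; inactive means the rest.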 The entries come from a sample that favours actives as a whole.
Form entry, call: pick from Yes = active, No = inactive

Examples with answers:
[
  {
    "Compound": "COc1cc(C(C)=O)ccc1OC(C)C(=O)Nc1ccc(S(=O)(=O)N2CCCC2)cc1 (stereo not given)",
    "Cat": "No"
  },
  {
    "Compound": "Nc1ccc(SCCN2C(=O)c3ccccc3C2=O)cc1",
    "Cat": "No"
  },
  {
    "Compound": "COc1ccc(C2OCC3(CO2)SC(=O)NC3=O)cc1OC (stereo not given)",
    "Cat": "No"
  },
  {
    "Compound": "CC(C)CCNC(=O)C(C)N(C(=O)Cn1nnc(-c2ccc(F)cc2)n1)C1CCCC1 (stereo not given)",
    "Cat": "Yes"
  },
  {
    "Compound": "Cc1ccc(C2CC(c3cccc(NS(C)(=O)=O)c3)=NN2S(C)(=O)=O)cc1 (stereo not given)",
    "Cat": "No"
  },
  {
    "Compound": "CC(=O)Nc1ccc(OC(=O)COc2ccc(Br)cc2)cc1",
    "Cat": "Yes"
  },
  {
    "Compound": "CCCCNC(=O)c1ccccc1NC(=O)c1ccccc1N(C)S(C)(=O)=O",
    "Cat": "No"
  },
  {
    "Compound": "COc1ccc(Br)cc1CN(C)CC(=O)Nc1cc([N+](=O)[O-])ccc1OC",
    "Cat": "No"
  },
  {
    "Compound": "CCOC(=O)C1CCN(C(=O)CN2C(=O)NC(C)(c3ccc4cc(OC)ccc4c3)C2=O)CC1 (stereo not given)",
    "Cat": "No"
  }
]

From here, focus on the item given below.
Which result was noted for this compound in the test: `Cc1c(C=O)c2ccccc2n1CCOc1ccccc1`
No
